# reported melting point; entries follow

MOLECULE: OCc1csc(Nc2ccc(Oc3ccccc3)cn2)n1
melting point: 130 to 131 °C
--
MOLECULE: O=C(c1ccc(-c2cccs2)cc1)N1Cc2ccccc2Nc2ccccc21
melting point: 114 to 116 °C
--
MOLECULE: CCc1ccnc(C(=O)c2[nH]c3ccc(C(F)(F)F)cc3c2CC(=O)O)c1
melting point: 204 °C
--
MOLECULE: C=CC(=O)NC(C)(C)CS(=O)(=O)OC
melting point: 80.6 °C
--
MOLECULE: O=C1CC2CC(Oc3nc4ccccc4[nH]3)CC2C1 (stereo unspecified)
melting point: 208 to 209 °C
--
MOLECULE: Cc1ncc(CN2CCc3cc(-c4cc(Cl)cc(Cl)c4)ccc3C2)c(N)n1
melting point: 205 to 211 °C
--
MOLECULE: CC(C)OC(=O)c1cc(-c2nn(C)c(C(F)(F)F)c2C(F)F)c(F)cc1Cl
melting point: 57 °C
--
MOLECULE: COc1ccc(C2=NN(C3CCN(C(=O)[C@H](C)NC(=O)NC(C)(C)C)CC3)C(=O)[C@@H]3CC=CC[C@H]23)cc1OC
melting point: 153 to 154 °C
--
MOLECULE: Cc1[nH]c2ccccc2c1C=C1SC(=S)N(CC(=O)O)C1=O
melting point: 291 to 292 °C
--
MOLECULE: OC1COc2ccccc2C1 (stereo unspecified)
melting point: 188 to 193 °C
--
MOLECULE: COCc1cc(O)nc2nc(N)ccc12
melting point: > 290 °C
--
MOLECULE: O=C1c2ccccc2CCC1c1ccccc1 (stereo unspecified)
melting point: 69 °C
--
MOLECULE: COc1ccc(C2=NN(c3ccc(C4=NNC(=O)CC4C)cc3)C(=O)C3CC=CCC23)cc1OC (stereo unspecified)
melting point: 192 to 194 °C
--
MOLECULE: Brc1cc(-c2ccccc2)on1
melting point: 71 to 73 °C
--
MOLECULE: NC(=S)NCCSCc1c[nH]cn1
melting point: 135 to 137 °C
--
MOLECULE: O=C(CO[C@H]1CC[C@@H](CCNS(=O)(=O)c2ccc(Cl)cc2)CC1)Nc1nnn[nH]1
melting point: 191 to 192 °C
--
MOLECULE: Cc1nc(C)c(Cl)c(NCc2nccc(SCCCN3CCNCC3)c2C)n1
melting point: 144 to 145 °C
--
MOLECULE: Cc1cc(Oc2ccc(Cl)c(Cl)c2)ccc1S(C)(=O)=O
melting point: 154 to 156 °C
--
MOLECULE: CCCCC(Cc1ccc(OCc2ccccc2)cc1)(C(=O)OCC)C(=O)OCC
melting point: 73 °C
--
MOLECULE: NC(=O)CCNc1ccc([N+](=O)[O-])cc1OCCO
melting point: 184 °C
--
MOLECULE: O=C(c1ccc(Nc2ccnc3cc(C(F)(F)F)ccc23)cc1)N1CCC(Sc2ccc(F)cc2)CC1
melting point: 211 to 214 °C

###

# reported melting point; entries follow
PROPERTY MEASURED: melting point

COMPOUND: Cn1ncc(C(=O)N[C@H]2CCOC2)c1C(=O)Nc1ccn2nc(-c3ccccc3)nc2c1
PROPERTY MEASURED: melting point
EXPERIMENTAL RESULT: > 250 °C
--
COMPOUND: NC(=O)CCCSc1cccc(Br)n1
PROPERTY MEASURED: melting point
EXPERIMENTAL RESULT: 87 to 88 °C
--
COMPOUND: Oc1ccc(Nc2ncc3ncc(Cl)cc3n2)cc1
PROPERTY MEASURED: melting point
EXPERIMENTAL RESULT: 232 to 234 °C
--
COMPOUND: COC(=O)c1cc(COc2c(OC)c3cocc(OC)c-3c2C(C)=O)ccc1COc1c(OC)c2cocc(OC)c-2c1C(C)=O
PROPERTY MEASURED: melting point
EXPERIMENTAL RESULT: 87 to 89 °C
--
COMPOUND: CO[C@@H]1CC[C@H](C(=O)O)Cc2onc(-c3ccc(Cl)cc3)c21 (relative stereo)
PROPERTY MEASURED: melting point
EXPERIMENTAL RESULT: 168 to 170 °C
--
COMPOUND: COc1cc(OC)c(N2CCCC2)cc1/C=C/C(=O)c1ccc(S(=O)(=O)Nc2cc(C)on2)cc1
PROPERTY MEASURED: melting point
EXPERIMENTAL RESULT: 164 to 165 °C
--
COMPOUND: CC(C)(C)[Si](OCCOc1ccc(N)cn1)(c1ccccc1)c1ccccc1
PROPERTY MEASURED: melting point
EXPERIMENTAL RESULT: 59 to 61 °C
--
COMPOUND: COc1cc(CCc2ccc(C)cc2)cc(OC)c1OC
PROPERTY MEASURED: melting point
EXPERIMENTAL RESULT: 51 to 52 °C
--
COMPOUND: CONCc1nc2c(N)nc3cc(-c4cccnc4)cnc3c2n1CC(C)(C)O
PROPERTY MEASURED: melting point
EXPERIMENTAL RESULT: 195 to 197 °C

###

Non-standard residues stand in square brackets, D forms with d. Residues, ends and D or L forms follow the SMILES beside them. pGlu = O=C1CC[CH](C(=O)O)N1
PROPERTY MEASURED: melting point

MOLECULE: CNC(=O)[C@@H]1C[C@@H](OC(C)(C)C)CN1S(=O)(=O)c1ccc(Cl)c(CBr)c1Cl
EXPERIMENTAL RESULT: 73 °C
//
MOLECULE: O=C1Nc2cccc(-c3cccc(NC(=O)c4cccc([N+](=O)[O-])c4)c3)c2/C1=C/c1ccc[nH]1
EXPERIMENTAL RESULT: 265 to 266 °C
//
MOLECULE: O=C1CCCCN1[C@@H]1c2cc(C(F)(F)C(F)(F)C(F)(F)F)ccc2OC(CF)(CF)[C@H]1O (relative stereo)
EXPERIMENTAL RESULT: 156 to 157 °C
//
MOLECULE: NC(=O)CC(NC(=O)C(CO)NC(=O)CNC(=O)CNC(=O)C1CCC(=O)N1)C(=O)NC(Cc1ccccc1)C(N)=O (stereo not drawn) ([pGlu]GGSNF-NH2; configuration not given here)
EXPERIMENTAL RESULT: 218 to 221 °C
//
MOLECULE: CCOC1(OCC)C[C@@H](C(=O)O)[C@@H]1C(=O)O (relative stereo)
EXPERIMENTAL RESULT: 118 to 120 °C
//
MOLECULE: CN(C)c1ccc([N+](=O)[O-])c(C(OC(=O)C(Cl)(Cl)Cl)c2ccccc2)c1[N+](=O)[O-] (stereo not drawn)
EXPERIMENTAL RESULT: 129 to 130 °C
//
MOLECULE: CN(C)C(=O)COC(=O)c1ccc(Cl)cc1OCC(=O)N(C)C
EXPERIMENTAL RESULT: 140 to 141 °C
//
MOLECULE: CSC1C(=O)Nc2ccc(C(F)(F)F)cc21 (stereo not drawn)
EXPERIMENTAL RESULT: 136 to 138 °C
//
MOLECULE: Cc1ccc(S(=O)(=O)N2CC3=C(C2)C(Cc2ccccc2)NCC3)cc1 (stereo not drawn)
EXPERIMENTAL RESULT: 196 °C
//
MOLECULE: CCOCCSC(F)(F)C(O)(Cn1cncn1)c1ccc(F)cc1F (stereo not drawn)
EXPERIMENTAL RESULT: 61 to 63 °C
//
MOLECULE: COc1ccc(-c2nc(CCO)sc2-c2ccc(OC)cc2)cc1
EXPERIMENTAL RESULT: 101 to 104 °C
//
MOLECULE: CCc1ncnc(Sc2ccc(Cl)cc2)c1F
EXPERIMENTAL RESULT: 44.1 to 45.5 °C
//
MOLECULE: CN(C)c1ccnc(CO)n1
EXPERIMENTAL RESULT: 83 to 84 °C
//
MOLECULE: CS(=O)(=O)N1CCCCc2nc(-c3ccncc3)sc21
EXPERIMENTAL RESULT: 193 to 194 °C
//
MOLECULE: Cn1c(CCCO)nc2ccccc21
EXPERIMENTAL RESULT: 107 °C
//
MOLECULE: CN(C)c1nc2ncnc(NCc3ccco3)c2[nH]1
EXPERIMENTAL RESULT: 245 to 246 °C
//
MOLECULE: CC1(C)CCOc2cc(O)ccc21
EXPERIMENTAL RESULT: 88 to 88.5 °C
//
MOLECULE: COc1ccc(CN2CCC(N=C(NC#N)N3CCc4ccccc4C3)CC2)cc1
EXPERIMENTAL RESULT: 135 to 137 °C
//
MOLECULE: O=[N+]([O-])c1ccc(Cl)c2c(Cl)ccnc12
EXPERIMENTAL RESULT: 116 to 118 °C
//
MOLECULE: O=C(O)c1ccc(Cn2ccc3cc(OCc4ccc5ccccc5n4)ccc32)cc1
EXPERIMENTAL RESULT: 212 to 216 °C
//
MOLECULE: Cn1c(-c2ccc(Cl)cc2)cc(=O)c(C(=O)O)c1-c1ccc(Cl)cc1
EXPERIMENTAL RESULT: 187 to 190 °C
//
MOLECULE: O=C(O)COc1ccc2cc(CNC(=O)c3cnn(-c4ccc(Cl)cc4)c3C(F)(F)F)ccc2c1
EXPERIMENTAL RESULT: 189 to 191 °C
//
MOLECULE: Cc1ccccc1CCNC(=O)c1ccc(Br)cc1
EXPERIMENTAL RESULT: 102 to 103 °C
//
MOLECULE: CC(C)c1[nH]n(-c2c(Cl)cncc2Cl)c2nc(Cc3ccc(CN4CCCC4)c(O)c3)nc(=O)c1-2
EXPERIMENTAL RESULT: 209 °C
//
MOLECULE: CN(C(=O)Nc1nc(OCC(F)(F)F)cc(OCC(F)(F)F)n1)c1ccc(CC(F)(F)F)s1
EXPERIMENTAL RESULT: 99 to 101 °C
//
MOLECULE: N#Cc1cc(NCc2cc3c(cc2O)CCO3)cs1
EXPERIMENTAL RESULT: 138 to 139 °C
//
MOLECULE: CCOC(=O)C1=COc2ccc(O)cc2O1
EXPERIMENTAL RESULT: 160 °C
//
MOLECULE: COC(=O)c1cc(OC(=S)N(C)C)c2cc(-c3ccc(OC)c(C45CC6CC(CC(C6)C4)C5)c3)ccc2c1C
EXPERIMENTAL RESULT: 137 to 138 °C
//
MOLECULE: CCCc1nc2c(N)nc3cccnc3c2n1CC1(O)CC1
EXPERIMENTAL RESULT: 199 to 200 °C
//
MOLECULE: O=C(N[C@H]1CC[C@H](CCN2CCN(c3nccc4c3OCC4)CC2)CC1)c1cnc(N2CCOCC2)cn1
EXPERIMENTAL RESULT: 200 °C
//
MOLECULE: C#CC1N(C(=O)Oc2ccccc2)c2cc(OC(=O)C(C)(C)C)ccc2C23OC12CCCC3=O (stereo not drawn)
EXPERIMENTAL RESULT: 164 to 166 °C
//
MOLECULE: N=c1c2sc(=S)n(-c3ccccc3)c2ncn1NC(=O)c1ccco1
EXPERIMENTAL RESULT: 228 °C
//
MOLECULE: CCCCCCc1cc2c(cc1C(=O)Oc1ccc(C(=O)O)cn1)C(C)(C)CC2
EXPERIMENTAL RESULT: 104 to 105 °C
//
MOLECULE: COc1ccc(NS(=O)(=O)c2ccc(N3CCC(NC[C@H](O)COc4ccc(OCc5ccccc5)cc4)CC3)cc2)cc1OC
EXPERIMENTAL RESULT: 113 to 121 °C
//
MOLECULE: N#Cc1c(N2CCN(C(=O)c3cccs3)CC2)c2cc(F)cnc2n(Cc2cccc(F)c2)c1=O
EXPERIMENTAL RESULT: 137 °C
//
MOLECULE: CCCN(CCN1CCN(C(=O)c2cc3ccccc3[nH]2)CC1)C1CCc2c(O)cccc2C1 (stereo not drawn)
EXPERIMENTAL RESULT: 169 to 170 °C
//
MOLECULE: Cc1ccnc(NC(=O)c2c(-c3ccc(F)cc3)c(-c3ccc(F)cc3)cn2C(C)C)n1
EXPERIMENTAL RESULT: 165 to 166 °C
//
MOLECULE: Cc1cc2c(cc1S(=O)(=O)c1ccc(Cl)cc1)OC(C(=O)O)O2 (stereo not drawn)
EXPERIMENTAL RESULT: 169 to 171 °C
